Target: T1, human Nectin-4 (Homo sapiens, UniProt Q96NY8)
T1 sequence (Q96NY8 32-510): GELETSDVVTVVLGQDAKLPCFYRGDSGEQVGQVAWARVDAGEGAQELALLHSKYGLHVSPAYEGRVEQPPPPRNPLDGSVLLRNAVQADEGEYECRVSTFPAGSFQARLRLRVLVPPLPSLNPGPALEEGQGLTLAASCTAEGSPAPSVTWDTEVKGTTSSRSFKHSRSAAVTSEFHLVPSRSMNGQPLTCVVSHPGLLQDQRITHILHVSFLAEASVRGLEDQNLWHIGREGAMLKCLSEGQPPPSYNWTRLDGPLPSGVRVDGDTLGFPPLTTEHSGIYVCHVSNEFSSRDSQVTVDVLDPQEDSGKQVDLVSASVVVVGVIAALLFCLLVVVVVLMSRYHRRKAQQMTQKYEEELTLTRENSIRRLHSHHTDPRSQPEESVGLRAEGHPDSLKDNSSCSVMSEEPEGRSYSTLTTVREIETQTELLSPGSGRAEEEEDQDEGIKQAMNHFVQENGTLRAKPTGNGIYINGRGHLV
Experiment: Binding to human Nectin-4 by SPR
Details: SPR dissociation constant; second set (Table 7)
Known kd of a selection of molecules
REPORTED_METRIC: kd (s⁻¹)

• H8L1 (antibody, human IgG1, V domains shown, human IgG1 isotype) VH: QVQLVQSGAEVKKPGASVKVSCKASGYIFTSYWMHWVKQAPGQGLEWIGEIDPSDSYTNYNQKFKGRVTMTLDKSTSTTYMELSSLRSEDTAVYYCARGYGNYGDYWGQGTLVTVSS VL: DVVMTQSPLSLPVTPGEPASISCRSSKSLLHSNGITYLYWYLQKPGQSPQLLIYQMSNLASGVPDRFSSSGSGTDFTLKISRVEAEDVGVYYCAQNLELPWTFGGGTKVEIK = 0.0048
• H6L1 (antibody, human IgG1, V domains shown, human IgG1 isotype) VH: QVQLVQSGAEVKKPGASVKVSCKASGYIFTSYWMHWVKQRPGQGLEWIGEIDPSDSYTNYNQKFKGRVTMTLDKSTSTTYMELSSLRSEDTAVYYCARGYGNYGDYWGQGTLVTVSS VL: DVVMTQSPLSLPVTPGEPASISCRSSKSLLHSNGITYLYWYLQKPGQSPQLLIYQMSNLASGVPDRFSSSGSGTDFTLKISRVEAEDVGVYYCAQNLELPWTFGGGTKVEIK = 0.0062
• 5E7 (antibody, V domains shown) VH: QVQLQQPGAELVKPGASVKLSCKASGYIFTSYWMHWVKQRPGQGLEWIGEIDPSDSYTNYNQKFKGKATLTLDKSSSTTYMQLSSLTSEDSAVYYCVRGYGNYGDYWGQGTTLTVSSASTKGP VL: DVVMTQAAFSNPVTLGTSASISCRSSKSLLHSNGITYLYWYLQKPGQSPQLLIYQMSNLASGVPDRFSSSGSGTDFTLRISRVEAEDVGVYYCAQNLELPWTFGGGTKLEIKRTVAAP = 0.0027
